- study-system: ScBzz1-D2
- experimental-protocol: SPOT peptide array binding signal intensity (averaged, normalized) (arbitrary units (background-subtracted, floor 0; scale differs between SH3 domains)); higher = stronger binding of the SH3 domain to the peptide
Provide the reported SPOT peptide array binding signal intensity of each item.
When you answer, write just the number.

Which value of SPOT peptide array binding signal intensity has been reported for NLPKRKPPKLQGPFS in the records?
4

What do you get for RRSKSLPITPKSIFN ?
12.5

What do you get for APKREAPKPPANTSP ?
5

What do you get for GKFIPSRPAPKPPSS ?
25

What do you get for NLDRSKISLPDFDDE ?
18

FYI, the data here is from the supplement of paper PMC4466140.
